Measured values drawn from patent US20250288683A1 for this set.

biological target: Human BCL-XL protein (N-terminal HiBiT tagged BCL-XL in HT1080 cells) (Homo sapiens, UniProt Q07817); construct: expressed in transfected cells; host or cells: HT-1080 (ATCC CCL-121), stably transduced with lentivirus pLV-UBC-N-HiBiT-BCL-XL-PGK-puro and selected with puromycin; assay: HiBiT based degradation assay; type: cell-based; settings: HT1080 cells expressing N-terminal HiBiT tagged BCL-XL, 24 h, normalized with DMSO control
Sequence (Q07817 whole entry): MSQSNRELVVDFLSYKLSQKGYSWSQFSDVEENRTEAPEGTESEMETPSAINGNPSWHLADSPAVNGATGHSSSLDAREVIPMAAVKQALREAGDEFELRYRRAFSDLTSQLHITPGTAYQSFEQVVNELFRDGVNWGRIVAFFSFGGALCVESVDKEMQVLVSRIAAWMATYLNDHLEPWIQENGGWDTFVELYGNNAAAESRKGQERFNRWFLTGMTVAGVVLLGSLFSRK
assay.readout: Ymin (24 h)

molecule="Cc1ncsc1-c1ccc([C@H](C)NC(=O)[C@@H]2C[C@@H](O)CN2C(=O)[C@@H](NC(=O)CN2CCC(CCCOc3cccc(-c4ccc(N5CCc6cccc(C(=O)Nc7nc8ccccc8s7)c6C5)nc4C(=O)O)c3C)CC2)C(C)(C)C)cc1 [Compound 124a]" assay_readout="Ymin (24 h)" value="A (Ymin < 50%)"
molecule="Cc1ncsc1-c1ccc([C@H](C)NC(=O)[C@@H]2C[C@@H](O)CN2C(=O)[C@@H](NC(=O)CCCc2ccc(Oc3cccc(-c4ccc(N5CCc6cccc(C(=O)Nc7nc8ccccc8s7)c6C5)nc4C(=O)O)c3C)cc2)C(C)(C)C)cc1 [Compound 115a]" assay_readout="Ymin (24 h)" value="A (Ymin < 50%)"

---

molecular target: Human BCL-XL protein (N-terminal HiBiT tagged BCL-XL in HT1080 cells) (Homo sapiens, UniProt Q07817); construct: expressed in transfected cells; host or cells: HT-1080 (ATCC CCL-121), stably transduced with lentivirus pLV-UBC-N-HiBiT-BCL-XL-PGK-puro and selected with puromycin; assay: HiBiT based degradation assay; type: cell-based; settings: HT1080 cells expressing N-terminal HiBiT tagged BCL-XL, 24 h, normalized with DMSO control
assay.readout: Ymin (24 h)

Study these solved cases before continuing.
compound="Cc1ncsc1-c1ccc(CNC(=O)[C@@H]2C[C@@H](O)CN2C(=O)[C@@H](NC(=O)C2(F)CC2)C(C)(C)SCCCCCCCCCOc2cccc(-c3ccc(N4CCc5cccc(C(=O)Nc6nc7ccccc7s6)c5C4)nc3C(=O)O)c2C)cc1 [Compound 141a]" assay_readout="Ymin (24 h)" value="A (Ymin < 50%)"
compound="Cc1ncsc1-c1ccc([C@H](C)NC(=O)[C@@H]2C[C@@H](O)CN2C(=O)[C@@H](NC(=O)C(F)(F)[C@H]2CC[C@H](Oc3cccc(-c4ccc(N5CCc6cccc(C(=O)Nc7nc8ccccc8s7)c6C5)nc4C(=O)O)c3C)CC2)C(C)(C)C)cc1 [Compound 144a]" assay_readout="Ymin (24 h)" value="A (Ymin < 50%)"
compound="Cc1ncsc1-c1ccc([C@H](C)NC(=O)[C@@H]2C[C@@H](O)CN2C(=O)[C@@H](NC(=O)C[C@@H](Cc2ccc(Oc3cccc(-c4ccc(N5CCc6cccc(C(=O)Nc7nc8ccccc8s7)c6C5)nc4C(=O)O)c3C)cc2)C(F)(F)F)C(C)(C)C)cc1 (relative stereo) [Compound 131b]" assay_readout="Ymin (24 h)" value="B (50% ≤ Ymin < 70%)"
compound="Cc1ncsc1-c1ccc([C@H](C)NC(=O)[C@@H]2C[C@@H](O)CN2C(=O)[C@@H](NC(=O)CCc2ccc(Oc3cccc(-c4ccc(N5CCc6cccc(C(=O)Nc7nc8ccccc8s7)c6C5)nc4C(=O)O)c3C)cc2)C(C)(C)C)cc1 [Compound 112a]" assay_readout="Ymin (24 h)" value="B (50% ≤ Ymin < 70%)"
compound="Cc1ncsc1-c1ccc([C@H](C)NC(=O)[C@@H]2C[C@@H](O)CN2C(=O)[C@@H](NC(=O)CC(C)Cc2ccc(Oc3cccc(-c4ccc(N5CCc6cccc(C(=O)Nc7nc8ccccc8s7)c6C5)nc4C(=O)O)c3C)cc2)C(C)(C)C)cc1 (single isomer, unassigned) [Compound 134b]" assay_readout="Ymin (24 h)" value="A (Ymin < 50%)"
compound="Cc1ncsc1-c1ccc([C@H](C)NC(=O)[C@@H]2C[C@@H](O)CN2C(=O)[C@@H](NC(=O)C[C@H](Cc2ccc(Oc3cccc(-c4ccc(N5CCc6cccc(C(=O)Nc7nc8ccccc8s7)c6C5)nc4C(=O)O)c3C)cc2)C(F)(F)F)C(C)(C)C)cc1 (single isomer, unassigned) [Compound 131a]" assay_readout="Ymin (24 h)" value="A (Ymin < 50%)"

Switching to the query record.
I have this compound here, Cc1ncsc1-c1ccc([C@H](C)NC(=O)[C@@H]2C[C@@H](O)CN2C(=O)[C@@H](NC(=O)C[C@H]2CC[C@@H](Oc3cccc(-c4ccc(N5CCc6cccc(C(=O)Nc7nc8ccccc8s7)c6C5)nc4C(=O)O)c3C)CC2)C(C)(C)C)cc1 [Compound 116b] , and I need its recorded Ymin (24 h).
B (50% ≤ Ymin < 70%)

---

Molecular target: Human BCL-XL protein (N-terminal HiBiT tagged BCL-XL in HT1080 cells) (Homo sapiens, UniProt Q07817)
Construct: expressed in transfected cells; host or cells: HT-1080 (ATCC CCL-121), stably transduced with lentivirus pLV-UBC-N-HiBiT-BCL-XL-PGK-puro and selected with puromycin
Assay: HiBiT based degradation assay
Type: cell-based
Conditions: HT1080 cells expressing N-terminal HiBiT tagged BCL-XL, 24 h, normalized with DMSO control
Procedure: HiBiT Based Degradation Assay Human BCL-XL protein coding open reading frame fused with N-terminal HiBiT coding sequence was synthesized from Integrated DNA Technologies (IDT). […] HT1080 cells expressing N-terminal HiBiT tagged BCL-XL were dispensed into a 384-well plate pre-spotted with compounds at varying concentrations. […] After incubation, luminescence was read on a PHERAstar FSX Plate Reader (BMG). […]
assay.readout: Ymin (24 h)

// solved cases for Ymin (24 h) follow
compound="Cc1ncsc1-c1ccc([C@H](C)NC(=O)[C@@H]2C[C@@H](O)CN2C(=O)[C@@H](NC(=O)C(F)(F)CCc2ccc(Oc3cccc(-c4ccc(N5CCc6cccc(C(=O)Nc7nc8ccccc8s7)c6C5)nc4C(=O)O)c3C)cc2)C(C)(C)C)cc1 [Compound 139a]" value="A (Ymin < 50%)"
compound="Cc1ncsc1-c1ccc([C@H](C)NC(=O)[C@@H]2C[C@@H](O)CN2C(=O)[C@@H](NC(=O)Cc2ccc(Oc3cccc(-c4ccc(N5CCc6cccc(C(=O)Nc7nc8ccccc8s7)c6C5)nc4C(=O)O)c3C)cc2)C(C)(C)C)cc1 [Compound 113a]" value="A (Ymin < 50%)"
compound="Cc1ncsc1-c1ccc([C@H](C)NC(=O)[C@@H]2C[C@@H](O)CN2C(=O)[C@@H](NC(=O)C(C)(C)CCc2ccc(Oc3cccc(-c4ccc(N5CCc6cccc(C(=O)Nc7nc8ccccc8s7)c6C5)nc4C(=O)O)c3C)cc2)C(C)(C)C)cc1 [Compound 133a]" value="B (50% ≤ Ymin < 70%)"
compound="Cc1ncsc1-c1ccc([C@@H](NC(=O)[C@@H]2C[C@@H](O)CN2C(=O)[C@@H](NC(=O)CCCc2ccc(Oc3cccc(-c4ccc(N5CCc6cccc(C(=O)Nc7nc8ccccc8s7)c6C5)nc4C(=O)O)c3C)cc2)C(C)(C)C)C(F)(F)F)cc1 [Compound 120a]" value="A (Ymin < 50%)"
compound="Cc1ncsc1-c1ccc([C@H](C)NC(=O)[C@@H]2C[C@@H](O)CN2C(=O)[C@@H](n2cc(CCCCCOc3cccc(-c4ccc(N5CCc6cccc(C(=O)Nc7nc8ccccc8s7)c6C5)nc4C(=O)O)c3C)nn2)C(C)(C)C)cc1 [Compound 126a]" value="A (Ymin < 50%)"
compound="Cc1ncsc1-c1ccc([C@H](C)NC(=O)[C@@H]2C[C@@H](O)CN2C(=O)[C@@H](NC(=O)CCCCCCOc2cccc(-c3ccc(N4CCc5cccc(C(=O)Nc6nc7ccccc7s6)c5C4)nc3C(=O)O)c2C)C(C)(C)C)cc1 [Compound 106a]" value="A (Ymin < 50%)"

For the compound Cc1ncsc1-c1ccc([C@H](C)NC(=O)[C@@H]2C[C@@H](O)CN2C(=O)[C@@H](NC(=O)CCCCOc2cccc(-c3ccc(N4CCc5cccc(C(=O)Nc6nc7ccccc7s6)c5C4)nc3C(=O)O)c2C)C(C)(C)C)cc1 [Compound 108a] , what Ymin (24 h) is on record?
A (Ymin < 50%)

Ymin (24 h) for Cc1ncsc1-c1ccc(CNC(=O)[C@@H]2C[C@@H](O)CN2C(=O)[C@@H](NC(=O)C2(F)CC2)C(C)(C)SCCCCCCCCCCCCOc2cccc(-c3ccc(N4CCc5cccc(C(=O)Nc6nc7ccccc7s6)c5C4)nc3C(=O)O)c2C)cc1 [Compound 142a] ?
B (50% ≤ Ymin < 70%)

---

target: Human BCL-XL protein (N-terminal HiBiT tagged BCL-XL in HT1080 cells) (Homo sapiens, UniProt Q07817); construct: expressed in transfected cells; host or cells: HT-1080 (ATCC CCL-121), stably transduced with lentivirus pLV-UBC-N-HiBiT-BCL-XL-PGK-puro and selected with puromycin; assay: HiBiT based degradation assay; format: cell-based; conditions: HT1080 cells expressing N-terminal HiBiT tagged BCL-XL, 6 h, normalized with DMSO control
assay.readout: Ymin (6 h)

compound="Cc1ncsc1-c1ccc([C@H](C)NC(=O)[C@@H]2C[C@@H](O)CN2C(=O)[C@@H](NC(=O)CCCCCOc2cccc(-c3ccc(N4CCc5cccc(C(=O)Nc6nc7ccccc7s6)c5C4)nc3C(=O)O)c2C)C(C)(C)C)cc1 [Compound 105a]" value="A (Ymin < 50%)"
compound="Cc1ncsc1-c1ccc([C@H](C)NC(=O)[C@@H]2C[C@@H](O)CN2C(=O)[C@@H](NC(=O)CCCCCCCCCn2nc(C)c(-c3ccc(N4CCc5cccc(C(=O)Nc6nc7ccccc7s6)c5C4)nc3C(=O)O)c2C)C(C)(C)C)cc1 [Compound 111a]" value="B (50% ≤ Ymin < 70%)"
compound="Cc1ncsc1-c1ccc([C@H](C)NC(=O)[C@@H]2C[C@@H](O)CN2C(=O)[C@@H](NC(=O)CCCCCCCCCCCCCn2nc(C)c(-c3ccc(N4CCc5cccc(C(=O)Nc6nc7ccccc7s6)c5C4)nc3C(=O)O)c2C)C(C)(C)C)cc1 [Compound 104a]" value="B (50% ≤ Ymin < 70%)"
compound="Cc1ncsc1-c1ccc([C@H](C)NC(=O)[C@@H]2C[C@@H](O)CN2C(=O)[C@@H](NC(=O)CCCCCCCOc2cccc(-c3ccc(N4CCc5cccc(C(=O)Nc6nc7ccccc7s6)c5C4)nc3C(=O)O)c2C)C(C)(C)C)cc1 [Compound 107a]" value="B (50% ≤ Ymin < 70%)"
compound="Cc1ncsc1-c1ccc([C@H](C)NC(=O)[C@@H]2C[C@@H](O)CN2C(=O)[C@@H](NC(=O)CCCCCCCCCCCCCCCn2nc(C)c(-c3ccc(N4CCc5cccc(C(=O)Nc6nc7ccccc7s6)c5C4)nc3C(=O)O)c2C)C(C)(C)C)cc1 [Compound 102a]" value="A (Ymin < 50%)"

Entry under review: Cc1ncsc1-c1ccc([C@H](C)NC(=O)[C@@H]2C[C@@H](O)CN2C(=O)[C@@H](NC(=O)CCCCCCCn2nc(C)c(-c3ccc(N4CCc5cccc(C(=O)Nc6nc7ccccc7s6)c5C4)nc3C(=O)O)c2C)C(C)(C)C)cc1 [Compound 103a] . Reported Ymin (6 h)?
A (Ymin < 50%)

What value of measured Ymin (6 h) is listed for Cc1ncsc1-c1ccc([C@H](C)NC(=O)[C@@H]2C[C@@H](O)CN2C(=O)[C@@H](NC(=O)CCCc2ccc(Oc3cccc(-c4ccc(N5CCc6cccc(C(=O)Nc7nc8ccccc8s7)c6C5)nc4C(=O)O)c3C)cc2)C(C)(C)C)cc1 [Compound 115a] ?
A (Ymin < 50%)

Dear colleague, I am looking for the recorded Ymin (6 h) of the following compound: Cc1ncsc1-c1ccc([C@H](C)NC(=O)[C@@H]2C[C@@H](O)CN2C(=O)[C@@H](NC(=O)CCCCCCCCCNC(=O)c2nc(N3CCc4cccc(C(=O)Nc5nc6ccccc6s5)c4C3)ccc2-c2cnn(Cc3ccccc3)c2C)C(C)(C)C)cc1 [Compound 110a]
A (Ymin < 50%)

Any idea what Ymin (6 h) was measured for Cc1ncsc1-c1ccc([C@H](C)NC(=O)[C@@H]2C[C@@H](O)CN2C(=O)[C@@H](NC(=O)CCc2ccc(Oc3cccc(-c4ccc(N5CCc6cccc(C(=O)Nc7nc8ccccc8s7)c6C5)nc4C(=O)O)c3C)cc2)C(C)(C)C)cc1 [Compound 112a] ?
B (50% ≤ Ymin < 70%)

I am curious: what Ymin (6 h) value has been reported for Cc1ncsc1-c1ccc([C@H](C)NC(=O)[C@@H]2C[C@@H](O)CN2C(=O)[C@@H](NC(=O)CCCCCCOc2cccc(-c3ccc(N4CCc5cccc(C(=O)Nc6nc7ccccc7s6)c5C4)nc3C(=O)O)c2C)C(C)(C)C)cc1 [Compound 106a] ?
A (Ymin < 50%)
